B1: Pistol ribozyme (parent)
chain: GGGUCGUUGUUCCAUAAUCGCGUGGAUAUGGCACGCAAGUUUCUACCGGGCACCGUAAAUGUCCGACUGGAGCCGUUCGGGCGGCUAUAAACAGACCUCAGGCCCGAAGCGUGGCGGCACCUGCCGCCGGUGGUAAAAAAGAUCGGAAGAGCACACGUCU

Variants of: B1
test.protocol: aptazyme ON/OFF ratio, guanine; higher = stronger switching; co-transcriptional cleavage with and without guanine
readout.name: aptazyme ON/OFF ratio
Enter the number alone.

Worked cases, aptazyme ON/OFF ratio given:
[[record]]
change = "U8C U10A U11G C12G C13G"
readout_name = "aptazyme ON/OFF ratio"
endpoint_value = 1.39

[[record]]
change = "U7G G9C U10C U11C C12U"
readout_name = "aptazyme ON/OFF ratio"
endpoint_value = 1.06

[[record]]
change = "U7A U8G G9C U10C U11C C12G C13A"
readout_name = "aptazyme ON/OFF ratio"
endpoint_value = 1.29

[[record]]
change = "U7G U8A G9A U10C U11C C12U C13A"
readout_name = "aptazyme ON/OFF ratio"
endpoint_value = 1.08

[[record]]
change = "G9U C13G"
readout_name = "aptazyme ON/OFF ratio"
endpoint_value = 1.09

[[record]]
change = "U7C U8A U10G U11A C13G"
readout_name = "aptazyme ON/OFF ratio"
endpoint_value = 1.17

[[record]]
change = "U7A U10G U11C C12U C13U"
readout_name = "aptazyme ON/OFF ratio"
endpoint_value = 1.21

[[record]]
change = "G9U U11G C12G"
readout_name = "aptazyme ON/OFF ratio"
endpoint_value = 2.82

[[record]]
change = "U7C U8C G9U U10A U11A C12A"
readout_name = "aptazyme ON/OFF ratio"
endpoint_value = 1.27

[[record]]
change = "U7C U8C G9U U11C"
readout_name = "aptazyme ON/OFF ratio"
endpoint_value = 1.1


Now look at this entry.
response.value for U7A U8G U10G C12U C13G (field: aptazyme ON/OFF ratio) = 1.28
